Recorded growth for the following compounds
Tested on: UACC-62 melanoma
Assay: NCI-60 one-dose screen, 48 h (100 = growth as untreated, 0 = no growth, -100 = all killed)
Settings: 10 µM unless noted
The panel holds about 83,000 compounds, 20% with a hit somewhere; the sample as a whole holds those more often. Active and inactive are the calls of the source. The calls were made as follows: active = growth percent below 10; inactive = the rest.

Solved cases (3 shown):
>  <compound>
O=C1c2ccccc2C(c2ccccc2)C1c1ccccc1 (stereo not given)

>  <growth>
67.8% (inactive)

$$$$
>  <compound>
COC(=O)c1ccccc1Cl

>  <growth>
104% (inactive)

$$$$
>  <compound>
Nc1c(Cl)cc2c(c1Br)C(=O)c1ccccc1C2=O

>  <growth>
77% (inactive)

$$$$

Specify measured growth for COc1ccc(CCNC(=S)NN)cc1OC .
115% (inactive)

Specify measured growth for CC(C)(C)OC(=O)CC1(O)CCCCC1 .
103% (inactive)

Specify measured growth for CCn1c2ccc(N(C)C)cc2c2cc(N(C)C)ccc21 .
91.9% (inactive)

Specify measured growth for CC(C)=NOC(C)C(=O)O (stereo not given) .
89.4% (inactive)

Specify measured growth for c1ccc2c[n+](Cc3ccc4ccccc4n3)ccc2c1 .
90% (inactive)

Specify measured growth for CCCC(=O)OCC(COC(=O)CCC)OC(=O)CCC .
89.9% (inactive)

Specify measured growth for NNC(=O)Nc1ccccc1 .
94.3% (inactive)

Specify measured growth for CCOC(=O)c1ccncc1 .
101% (inactive)

Where these numbers come from: PubChem BioAssay (NCI)
